# reported viability, T/C; entries follow
System: HOP-62 multicell spheroids with HUVEC/MSC, viability
Experiment: Anticancer human tumor HOP-62 cell line growth inhibition [KRAS2];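 also: viability read after a week of compound exposure; 100% = DMSO vehicle-treated spheroids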
Details: second compound 0.1 µM; first compound 3.16 µM; stronger effect = lower value
Give a bare numeral; the unit % is implied.

Use these answered entries as a reference point.
compound: O=C(c1cc(Cc2n[nH]c(=O)c3ccccc23)ccc1F)N1CCN(C(=O)C2CC2)CC1 + CNCc1ccccc1-c1csc(C(C)Nc2nc(C)nc3cc(OC)c(OC)cc23)c1
viability, T/C / %: 65.7

compound: COC(=O)c1ccc2c(C(=Nc3ccc(N(C)C(=O)CN4CCN(C)CC4)cc3)c3ccccc3)c(O)[nH]c2c1 + C=CC(=O)N1CCN(c2nc(OCC3CCCN3C)nc3c2CCN(c2cccc4cccc(C)c24)C3)CC1CC#N
viability, T/C / %: 20.5

compound: COc1cc(Nc2ncc3c(n2)-c2ccc(Cl)cc2C(c2c(F)cccc2OC)=NC3)ccc1C(=O)O + CC1OCC2(CCN(c3cnc(Sc4ccnc(N)c4Cl)c(N)n3)CC2)C1N
viability, T/C / %: 26.9

compound: COc1cc2nccc(Oc3ccc(NC(=O)C4(C(=O)Nc5ccc(F)cc5)CC4)cc3)c2cc1OC + C=CC(=O)N1CCN(c2nc(OCC3CCCN3C)nc3c2CCN(c2cccc4cccc(C)c24)C3)CC1CC#N
viability, T/C / %: 29

Query for HOP-62 multicell spheroids with HUVEC/MSC, viability: what viability, T/C does the record show for COc1cc(Nc2ncc3c(n2)-c2ccc(Cl)cc2C(c2c(F)cccc2OC)=NC3)ccc1C(=O)O + COc1cc2nc(C)nc(NC(C)c3cc(N)cc(C(F)(F)F)c3)c2cc1OC1CCOC1 ?
25.6

Query for HOP-62 multicell spheroids with HUVEC/MSC, viability: what viability, T/C does the record show for CCNC(=O)CC1N=C(c2ccc(Cl)cc2)c2cc(OC)ccc2-n2c(C)nnc21 (stereo unspecified) + COc1cc2nc(C)nc(NC(C)c3cc(N)cc(C(F)(F)F)c3)c2cc1OC1CCOC1 ?
21.9
